- Subject of test: KRAS G12C-BRAF complex (Homo sapiens (Human), UniProt P01116+P62937, G12C)
- Sequence (P01116-2 other isoform, or with tags, fused parts or gaps G12C): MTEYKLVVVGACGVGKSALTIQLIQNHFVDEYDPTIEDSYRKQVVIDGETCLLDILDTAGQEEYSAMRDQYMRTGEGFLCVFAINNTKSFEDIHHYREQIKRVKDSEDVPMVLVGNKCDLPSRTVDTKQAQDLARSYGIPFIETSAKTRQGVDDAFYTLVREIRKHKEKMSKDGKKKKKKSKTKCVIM
- Sequence (P62937 whole entry): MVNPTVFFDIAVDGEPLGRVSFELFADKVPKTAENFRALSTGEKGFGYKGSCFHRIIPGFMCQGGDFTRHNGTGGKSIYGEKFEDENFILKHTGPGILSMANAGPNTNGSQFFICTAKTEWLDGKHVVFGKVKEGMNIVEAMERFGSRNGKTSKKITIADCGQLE
- Experiment: KRAS G12C-BRAF NanoBit assay
- Type: cell-based
- Condition set: HEK293 cells, 3 hours of incubation
pIC50: −log10 of the molar value.

# Molecule, pIC50
data = [
    ("CO[C@@H](C)c1ncc(N2CCOCC2)cc1-c1c2c3cc(c(F)cc3n1CC(F)(F)F)-c1csc(n1)C[C@H](NC(=O)[C@H](C(C)C)N1CCC3(CN(C(=O)[C@H](F)Cl)C3)C1=O)C(=O)N1CCC[C@H](N1)C(=O)OCC(C)(C)C2 (atropisomer, axis not shown; (M)) [Example 58]", 7.27),
    ("CCn1c(-c2cc(N3CCOCC3)cnc2[C@H](C)OC)c2c3cc(c(F)cc31)-c1csc(n1)C[C@H](NC(=O)[C@H](C(C)C)N1CC[C@]3(CCN(C(=O)[C@H](F)Cl)C3)C1=O)C(=O)N1CCC[C@H](N1)C(=O)OCC(C)(C)C2 (atropisomer, axis not shown; (M)) [Example 51]", 7.47),
    ("CCn1c(-c2cc(N3CCN(C)CC3)cnc2[C@H](C)OC)c2c3cc(c(F)cc31)-c1csc(n1)C[C@H](NC(=O)[C@H](C(C)C)N1CCC[C@]3(CCN(C(=O)[C@@H](F)Cl)C3)C1=O)C(=O)N1CCC[C@H](N1)C(=O)OCC(C)(C)C2 [Example 22]", 6.68),
    ("CCn1c(-c2cc(N3CCOCC3)cnc2[C@H](C)OC)c2c3cc(c(F)cc31)-c1csc(n1)C[C@H](NC(=O)[C@H](C(C)C)N1CCC3(CN(C(=O)[C@H](F)Cl)C3)C1=O)C(=O)N1CCC[C@H](N1)C(=O)OCC(C)(C)C2 (atropisomer, axis not shown; (M)) [Example 52]", 7.15),
]

====

- Subject of test: KRAS G12V binding to BRAF (Homo sapiens (Human), UniProt P01116+P62937, G12V)
- Sequence (P01116-2 other isoform, or with tags, fused parts or gaps G12V): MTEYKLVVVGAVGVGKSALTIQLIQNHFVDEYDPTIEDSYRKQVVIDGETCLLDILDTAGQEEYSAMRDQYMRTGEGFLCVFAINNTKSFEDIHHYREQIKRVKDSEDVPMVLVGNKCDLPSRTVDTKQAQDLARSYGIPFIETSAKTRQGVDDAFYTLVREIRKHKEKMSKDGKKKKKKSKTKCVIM
- Sequence (P62937 whole entry): as the sequence (P62937 whole entry) above
- Experiment: KRAS-BRAF with CYPA (500 nM) interaction assay (TR-FRET), G12V
Catalogue of IC50 values

# Compound, Subject of test, IC50
data = [
    ("CCn1c(-c2cc(N3CCOCC3)cnc2[C@H](C)OC)c2c3cc(c(F)cc31)-c1csc(n1)C[C@H](NC(=O)[C@H](C(C)C)N1CC[C@]3(CCN(C(=O)[C@H](F)Cl)C3)C1=O)C(=O)N1CCC[C@H](N1)C(=O)OCC(C)(C)C2 (atropisomer, axis not shown; (M)) [Example 51]", "KRAS G12V binding to BRAF (Homo sapiens (Human), UniProt P01116+P62937, G12V)", "6.44 µM"),
    ("CC(C)[C@@H](C(=O)N[C@H]1Cc2cc(O)cc(c2)-c2ccc3c(C(C)(C)C#N)cn(c3c2)CC(C)(C)COC(=O)[C@@H]2CCCN(N2)C1=O)N1CCC2(CN(C(=O)[C@H](F)Cl)C2)C1=O [RM44-A, reference compound]", "KRAS G12V binding to BRAF (Homo sapiens (Human), UniProt P01116+P62937, G12V)", "> 10 µM"),
    ("CO[C@@H](C)c1ncc(N2CCN(C)CC2)cc1-c1c2c3cc(c(F)cc3n1CC(F)(F)F)-c1csc(n1)C[C@H](NC(=O)[C@H](C(C)C)N1CC[C@@]3(CCN(C(=O)[C@H](F)Cl)C3)C1=O)C(=O)N1CCC[C@H](N1)C(=O)OCC(C)(C)C2 (atropisomer, axis not shown; (M)) [Example 4]", "KRAS G12V binding to BRAF (Homo sapiens (Human), UniProt P01116+P62937, G12V)", "> 10 µM"),
    ("CO[C@@H](C)c1ncc(N2CCN(C)CC2)cc1-c1c2c3cc(c(F)cc3n1CC(F)(F)F)-c1cc(O)cc(c1)C[C@H](NC(=O)[C@H](C(C)C)N(C)C(=O)[C@H]1CCN(C(=O)[C@H](F)Cl)C1)C(=O)N1CCC[C@H](N1)C(=O)OCC(C)(C)C2 (atropisomer, axis not shown; (M)) [Example 8]", "KRAS G12V binding to BRAF (Homo sapiens (Human), UniProt P01116+P62937, G12V)", "0.01 µM"),
    ("CO[C@@H](C)c1ncc(N2CCN(C)CC2)cc1-c1c2c3cc(c(F)cc3n1CC(F)(F)F)-c1csc(n1)C[C@H](NC(=O)[C@H](C(C)C)N(C)C(=O)C1(F)CCN(C(=O)[C@H](F)Cl)CC1)C(=O)N1CCC[C@H](N1)C(=O)OCC(C)(C)C2 (atropisomer, axis not shown; (M)) [Example 10]", "KRAS G12V binding to BRAF (Homo sapiens (Human), UniProt P01116+P62937, G12V)", "0.136 µM"),
    ("CO[C@@H](C)c1ncc(N2CCN(C)CC2)cc1-c1c2c3cc(c(F)cc3n1CC(F)(F)F)-c1csc(n1)C[C@H](NC(=O)[C@H](C(C)C)N1CCC3(CN(C(=O)[C@H](F)Cl)C3)C1=O)C(=O)N1CCC[C@H](N1)C(=O)OCC(C)(C)C2 (atropisomer, axis not shown) [Example 25]", "KRAS G12V binding to BRAF (Homo sapiens (Human), UniProt P01116+P62937, G12V)", "3.54 µM"),
    ("CCn1c(-c2cc(N3CCOCC3)cnc2[C@H](C)OC)c2c3cc(c(F)cc31)-c1csc(n1)C[C@H](NC(=O)[C@H](C(C)C)N1CC[C@@]3(CCN(C(=O)[C@H](F)Cl)C3)C1=O)C(=O)N1CCC[C@H](N1)C(=O)OCC(C)(C)C2 (atropisomer, axis not shown; (M)) [Example 53]", "KRAS G12V binding to BRAF (Homo sapiens (Human), UniProt P01116+P62937, G12V)", "> 10 µM"),
]

====

- Tested on: phosphorylation of ERK, KRAS G12C in NCJ-H358 cells
- Experiment: pERK inhibition assay, KRAS G12C
- Format: cell-based, human
- Condition set: Homo sapiens, 4 hours
pIC50: −log10 of the molar value.
So basically: pIC50 at 8 or higher? That is 1. Lower than 8? That is -1.

# Compound, Category
data = [
    ("CO[C@@H](C)c1ncc(N2CCN(C)CC2)cc1-c1c2c3c(F)c(ccc3n1CC(F)(F)F)-c1cc(O)cc(c1)C[C@H](NC(=O)[C@H](C(C)C)N(C)C(=O)[C@H]1CCN(C(=O)[C@H](F)Cl)C1)C(=O)N1CCC[C@H](N1)C(=O)OCC(C)(C)C2 (atropisomer, axis not shown; (M))", 1),
    ("CCn1c(-c2cc(N3CCN(C)CC3)cnc2[C@H](C)OC)c2c3cc(c(F)cc31)-c1csc(n1)C[C@H](NC(=O)[C@H](COC1CN(C(=O)[C@H](F)Cl)C1)C(C)C)C(=O)N1CCC[C@H](N1)C(=O)OCC(C)(C)C2 (atropisomer, axis not shown; (M))", -1),
    ("CCn1c(-c2cc(N3CCN(C)CC3)cnc2[C@H](C)OC)c2c3cc(c(F)cc31)-c1csc(n1)C[C@H](NC(=O)[C@H](C(C)C)N(C)C(=O)[C@H]1CCN(C(=O)[C@H](F)Cl)C1)C(=O)N1CCC[C@H](N1)C(=O)OCC(C)(C)C2 (atropisomer, axis not shown; (M))", 1),
    ("CO[C@@H](C)c1ncc(N2CCN(C)CC2)cc1-c1c2c3cc(c(F)cc3n1CC(F)(F)F)-c1csc(n1)C[C@H](NC(=O)[C@H](C(C)C)N1CC[C@@]3(CCN(C(=O)[C@H](F)Cl)C3)C1=O)C(=O)N1CCC[C@H](N1)C(=O)OCC(C)(C)C2 (atropisomer, axis not shown; (M))", 1),
    ("CO[C@@H](C)c1ncc(N2CCN(C)CC2)cc1-c1c2c3c(F)c(ccc3n1CC(F)(F)F)-c1csc(n1)C[C@H](NC(=O)[C@H](C(C)C)N1CCCC3(CCN(C(=O)[C@H](F)Cl)CC3)C1=O)C(=O)N1CCC[C@H](N1)C(=O)OCC(C)(C)C2 (atropisomer, axis not shown; (M))", 1),
    ("CO[C@@H](C)c1ncc(N2CCN(C)CC2)cc1-c1c2c3cc(c(F)cc3n1CC(F)(F)F)-c1csc(n1)C[C@H](NC(=O)[C@H](COC1CN(C(=O)[C@H](F)Cl)C1)C(C)C)C(=O)N1CCC[C@H](N1)C(=O)OCC(C)(C)C2 (atropisomer, axis not shown; (M))", -1),
    ("CCn1c(-c2cc(N3CCN(CC(F)(F)F)CC3)cnc2[C@H](C)OC)c2c3cc(c(F)cc31)-c1csc(n1)C[C@H](NC(=O)[C@H](C(C)C)N1CCC3(CN(C(=O)[C@H](F)Cl)C3)C1=O)C(=O)N1CCC[C@H](N1)C(=O)OCC(C)(C)C2 (atropisomer, axis not shown; (M))", 1),
    ("CO[C@@H](C)c1ncc(N2CCN(C)CC2)cc1-c1c2c3cc(c(F)cc3n1CC(F)(F)F)-c1csc(n1)C[C@H](NC(=O)[C@H](C(C)C)N(C)C(=O)[C@H]1CCN(C(=O)[C@H](F)Cl)C1)C(=O)N1CCC[C@H](N1)C(=O)OCC(C)(C)C2 (atropisomer, axis not shown; (M))", 1),
    ("CC(C)[C@@H](C(=O)N[C@H]1Cc2cc(O)cc(c2)-c2ccc3c(C(C)(C)C#N)cn(c3c2)CC(C)(C)COC(=O)[C@@H]2CCCN(N2)C1=O)N1CCC2(CN(C(=O)[C@H](F)Cl)C2)C1=O [RM44-A, reference compound]", -1),
    ("CO[C@@H](C)c1ncc(N2CCN(C)CC2)cc1-c1c2c3cc(c(F)cc3n1CC(F)(F)F)-c1csc(n1)C[C@H](NC(=O)[C@H](C(C)C)N1CCC[C@@]3(CCN(C(=O)[C@H](F)Cl)C3)C1=O)C(=O)N1CCC[C@H](N1)C(=O)OCC(C)(C)C2 (single isomer, unassigned)", 1),
    ("CO[C@@H](C)c1ncc(N2CCN(C)CC2)cc1-c1c2c3cc(c(F)cc3n1CC(F)(F)F)-c1csc(n1)C[C@H](NC(=O)[C@H](C(C)C)N1CCCC3(CN(C(=O)[C@H](F)Cl)C3)C1=O)C(=O)N1CCC[C@H](N1)C(=O)OCC(C)(C)C2 (atropisomer, axis not shown; (M))", 1),
]
